# protocol: HT1080 cell viability loss – fluorescence readout (AID 620);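 note: cells exposed to compound overnight then 4 h with Alamar Blue; 0% = vehicle DMSO and 100% = killing control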
# measurement_conditions: at 10 µM, hits give high values
The campaign covered roughly 87,000 compounds. About 360 (0.41%) were called active. What follows is part of a selection rich in actives, with near analogues and random picks from the rest.
reported_endpoint: cytotoxicity (%)
I only need the number, in %, no unit after it.

Below, 3 compounds whose answers are already recorded.
Lookup: Requested field: cytotoxicity. Item: CC(C)(C)c1ccc(C(O)CCCN2CCC(C(O)(c3ccccc3)c3ccccc3)CC2)cc1 (stereo not given)
Found: 93.4

Lookup: Moving on to the next compound: `COc1ccc2nc3oc(C(=O)N4CCN(c5ccccc5F)CC4)cc3cc2c1`
Found: -0.7

Lookup: Now give it for `COCc1cc(C)nc(SCC(=O)Nc2cccc(C)c2C)c1C#N` too.
Found: -2

More entries:
Lookup: Please look up its cytotoxicity: `O=C(O)CCc1ccc(-c2cccs2)n1CCC(=O)O`
Found: -6.8

Lookup: Next up: `COc1ccc(Cl)cc1N(CC(=O)Nc1ccccc1C(=O)NCc1ccco1)S(C)(=O)=O`
Found: 4.2

====

# protocol: HT1080 cell viability loss – fluorescence readout (AID 620)
# measurement_conditions: at 10 µM, hits give high values
The whole screen tested about 87,000 compounds, of which about 360 (0.41%) were called active. The entries come from a sample that favours actives as a whole.
reported_endpoint: cytotoxicity (%)
Answer with a number only, understood to be in %.

The cases that follow already have their cytotoxicity on record.
Lookup: Need cytotoxicity, item `COc1ccc(CCNc2c(C)c(C)nc3ncnn23)cc1`
Found: 17.9

Lookup: Moving on to the next molecule: `Oc1c(CN2CCOCC2)cc(COCc2ccccc2)c2cccnc12`
Found: 20.5

Lookup: What about `COc1ccc(C)cc1NC(=O)NC1CCN(Cc2ccccc2)CC1` ?
Found: 3

Further cases:
Lookup: I am curious: what cytotoxicity value has been reported for `CCc1c(C)nc2ncnn2c1NCCc1ccccc1` ?
Found: -9.2

Lookup: Next molecule: `c1ccc(-c2noc(C3CCCCC3)n2)nc1`
Found: -7.2

====

# protocol: HT1080 cell viability loss – fluorescence readout (AID 620)
# measurement_conditions: at 10 µM
Among all 87,000 compounds or so, about 360 (0.41%) were called active. No stated cut-off is given here; in the data, active means cytotoxicity above about 50%; inactive means the rest. The sample holds actives, similar compounds and a random draw of the others, so the mix is not that of the screen.
Hi there, use one of these labels in your reply, thanks! class 1 for active, class 0 for inactive

Lookup: Kindly provide the recorded test outcome for the following molecule: CSCCOC(=O)c1[nH]c2c(c1C)C(=O)CC(c1ccco1)C2 (centres undefined)
Found: class 1

Continuing:
Lookup: Assay outcome for O=C1c2[nH]nc(-c3ccccc3O)c2C(c2cccc(Cl)c2)N1Cc1ccco1 (centres undefined) : what was it?
Found: class 0

Lookup: Please give the result for `CC(C)C[C@H](NC(=O)N1CCN(c2ccccc2)CC1)C(=O)O` too.
Found: class 0

Lookup: Same thing, different molecule: `Cc1cccc2cc(C#N)c(SCC(=O)N3CC(=O)Nc4ccccc43)nc12`
Found: class 1

Lookup: Now the same for `CC(=O)c1c(C)[nH]c(C(=O)N2CCN(c3ncccn3)CC2)c1C`
Found: class 0

Lookup: Then `Cc1ccc(N=Nc2c(C)[nH][nH]c2=O)c(C)c1` ?
Found: class 0

Lookup: Would you kindly repeat that for `CC(=O)c1c(C)[nH]c(C(=O)N2CCN(c3ccc(F)cc3)CC2)c1C` ?
Found: class 0

Lookup: And then `Cc1cc(C)c2nc(SCC(=O)N3CCCCC3)c(C#N)cc2c1` , what is it?
Found: class 0

Lookup: Moving on to COCCOC(=O)c1[nH]c2c(c1C)C(=O)CC(c1ccco1)C2 (centres undefined)
Found: class 1

Lookup: Now try COc1ccc(C2=NOC(C(=O)NCc3ccco3)C2)cc1OC (centres undefined) .
Found: class 0

Lookup: Now consider `CCNC(=O)CSc1nnc(-c2ccc(OC)cc2)n1CC(C)C` .
Found: class 0

Lookup: Repeat for the following molecule: `O=C(Cc1ccc(Br)cc1)OCC(=O)c1ccc2c(c1)OCCO2`
Found: class 0

Lookup: Same question for `Nc1cccc(Nc2nc(OC(C(F)(F)F)C(F)(F)F)nc(OC(C(F)(F)F)C(F)(F)F)n2)c1` please.
Found: class 0

Lookup: Param item: `Cc1ccsc1C(=O)N1CC(=O)Nc2ccccc21`
Found: class 0

Lookup: Item: COc1ccc(C2=NOC(C(=O)NCc3cccs3)C2)cc1 (centres undefined)
Found: class 0

Lookup: Do the same for `Cc1ccc(CN2CCN(C(=O)CCN3C(=O)c4ccccc4C3=O)CC2)cc1` please
Found: class 0

Lookup: Here is the next molecule: CCOC(=O)CCP(=O)(O)C(C)(O)c1ccccc1 (centres undefined)
Found: class 0

Lookup: Proceed to `O=C(Cn1cnc2ccccc2c1=O)OCC(=O)c1ccc2c(c1)OCCO2`
Found: class 0

Lookup: Next entry: COc1ccc(C2=NOC(C(=O)NCc3cccs3)C2)cc1OC (centres undefined)
Found: class 1

Lookup: Same read-out for COc1ccc(OC)c(C2CC(=O)c3c([nH]c(C(=O)OCC4CCCO4)c3C)C2)c1 (centres undefined) ?
Found: class 0

Lookup: Try this molecule next: COc1ccc2c(c1OC)C(=O)OC2Nc1ncc(Br)cc1Br (centres undefined)
Found: class 0

====

# protocol: HT1080 cell viability loss – fluorescence readout (AID 620);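 note: cells exposed to compound overnight then 4 h with Alamar Blue; 0% = vehicle DMSO and 100% = killing control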
# measurement_conditions: at 10 µM, hits give high values
Hit rate of the full screen: of about 87,000 compounds, about 360 (0.41%) were called active. Shown is part of a subset that was picked to be rich in actives.
Parameter cytotoxicity: see the listing below.
Expressed in %, but write only the number.

Answered cases to consult:
Lookup: Look up cytotoxicity: OC(CCN1CCCC1)(c1ccccc1)C1CCCCC1 (centres undefined)
Found: -2.5

Lookup: Further, for `Cc1ncc(S(=O)(=O)c2ccc(Cl)cc2)c(-c2ccccc2)n1` ?
Found: 18.2

Lookup: Likewise for `COc1ccc(CCNS(=O)(=O)c2ccc3c(c2)oc(=O)n3C)cc1OC` ?
Found: 3.2

Please look at the following compound next.
Lookup: Tell me the measured cytotoxicity of `CCOc1ccc2nc(SCC(=O)NC(=O)NCc3ccco3)[nH]c2c1` , please.
Found: -12.9

====

# protocol: HT1080 cell viability loss – fluorescence readout (AID 620);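 note: cells exposed to compound overnight then 4 h with Alamar Blue; 0% = vehicle DMSO and 100% = killing control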
# measurement_conditions: at 10 µM, hits give high values
The whole screen tested about 87,000 compounds, of which about 360 (0.41%) were called active. Shown is part of a subset that was picked to be rich in actives.
Catalogue of compounds with associated cytotoxicity
Write it as a number; the unit % goes unstated.

Lookup: Endpoint output: cytotoxicity of COc1ccc(C2C(C#N)=C(C)NC3=C2C(=O)c2ccccc23)cc1 (stereo not given) . Value?
Found: 3

Further cases:
Lookup: Which cytotoxicity is listed for `C[C@@H](NC(=O)c1coc(=O)c(Br)c1)c1ccccc1` ?
Found: 2.9

Lookup: Now try `CCOC(=O)CSc1nnc(Cn2c(=O)sc3ccccc32)n1C` .
Found: 1.9

Lookup: What would you report for O=C(Nc1ccccc1)N1CCCC2CCCCC21 (stereo not given) ?
Found: 6.5

Lookup: How about `Cc1cccc2cc(CN(CCN3CCOCC3)C(=O)Nc3ccccc3F)c(=O)[nH]c12` ?
Found: 13.6

====

# protocol: HT1080 cell viability loss – fluorescence readout (AID 620);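 note: cells exposed to compound overnight then 4 h with Alamar Blue; 0% = vehicle DMSO and 100% = killing control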
# measurement_conditions: at 10 µM, hits give high values
Screen size: about 87,000 compounds; about 360 (0.41%) were called active. What follows is part of a selection rich in actives, with near analogues and random picks from the rest.
In this section we review reported cytotoxicity values for a set of molecules.
Answer format: numeric, % implied, no suffix.

The examples below pair each entry with its known result.
Lookup: Please report the recorded cytotoxicity for `N#CCCCSc1nnc(-c2ccccn2)o1` .
Found: 0.3

Lookup: Same question for `COc1cc(NC(=O)c2cccs2)c(C(=O)OCC(=O)NCc2ccccc2)cc1OC` please.
Found: 9.6

***
Lookup: Form field: reported cytotoxicity of `CCOC(=O)c1ccccc1NS(=O)(=O)c1ccc(C)cc1`
Found: 6.9

Lookup: What do you have for `COc1ccccc1-c1cc(C(=O)Nc2cccnc2)no1` ?
Found: 58.1

Lookup: How about this molecule: `COc1ccccc1N(CC(=O)NC1CCCCC1)S(C)(=O)=O`
Found: -0.7

Lookup: Likewise for `COc1ccc(Cl)cc1NS(=O)(=O)c1ccc(OC)c(OC)c1` ?
Found: -2.2

Lookup: Also `COc1ccc(S(=O)(=O)Nc2cc(Cl)ccc2OC)cc1` ?
Found: 70.9

Lookup: Would you kindly repeat that for `COc1ccc(N2CCCCn3c2nc2c3c(=O)[nH]c(=O)n2C)cc1` ?
Found: 3.8

Lookup: And then `COc1ccc(C(=O)Nn2c(C)ccc2C)cc1OC` , what is it?
Found: -1

Lookup: Queued: CCC(=O)NCC(c1cccs1)N1CCOCC1 (centres undefined)
Found: -3.1

Lookup: Thanks! And O=C(NCC(c1cccs1)N1CCOCC1)c1ccc(Cl)s1 (centres undefined) ?
Found: 62.9

Lookup: Now this one: Cc1ccccc1S(=O)(=O)Cc1ccc(C(=O)N2CC(C)CC(C)C2)o1 (centres undefined)
Found: -14.1

Lookup: And `Nc1c(C(=O)NCc2ccccc2)nnn1Cc1ccc(F)cc1` ?
Found: 1.7

Lookup: // repeat for O=C(NCC(c1cccs1)N1CCOCC1)c1ccco1 (centres undefined) and report
Found: 9
